# MEASURED TARGET: prostate specific membrane antigen (PSMA) (Homo sapiens)
# Sequence (Q04609 whole entry): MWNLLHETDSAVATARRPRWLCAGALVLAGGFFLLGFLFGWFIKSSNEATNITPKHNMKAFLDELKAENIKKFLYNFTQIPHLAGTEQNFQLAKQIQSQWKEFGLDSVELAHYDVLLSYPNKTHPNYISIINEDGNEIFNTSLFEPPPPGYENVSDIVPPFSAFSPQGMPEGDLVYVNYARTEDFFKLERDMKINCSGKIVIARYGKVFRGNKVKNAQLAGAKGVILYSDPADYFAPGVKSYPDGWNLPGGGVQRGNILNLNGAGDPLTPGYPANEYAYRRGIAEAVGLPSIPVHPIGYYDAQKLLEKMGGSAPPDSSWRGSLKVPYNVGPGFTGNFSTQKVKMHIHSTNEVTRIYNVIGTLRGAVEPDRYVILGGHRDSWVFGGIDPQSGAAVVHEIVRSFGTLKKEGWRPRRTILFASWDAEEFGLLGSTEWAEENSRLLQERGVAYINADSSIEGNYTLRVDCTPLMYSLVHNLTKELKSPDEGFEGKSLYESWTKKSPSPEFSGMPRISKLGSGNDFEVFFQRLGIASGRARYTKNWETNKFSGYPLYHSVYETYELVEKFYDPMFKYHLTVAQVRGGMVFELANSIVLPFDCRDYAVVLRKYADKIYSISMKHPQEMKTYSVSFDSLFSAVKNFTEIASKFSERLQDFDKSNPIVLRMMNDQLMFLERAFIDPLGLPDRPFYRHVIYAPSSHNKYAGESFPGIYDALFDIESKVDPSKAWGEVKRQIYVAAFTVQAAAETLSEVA
# TEST DESCRIPTION: competitive binding on LNCaP cells with […]-GPI radioligand
# Type: cell-based
METRIC: pIC50
For clarity, pIC50 is expressed as the negative log10 of concentration in mol/L.

Ask: Item under review: NC(CCP(=O)(O)CC(CCC(=O)O)C(=O)O)C(=O)O (racemic) . Reported pIC50?
Reply: 6.34
